Provenance of the data: patent US20140213647A1

Target: human-derived NK2 receptor (Homo sapiens)
Sequence (P21452 1-398): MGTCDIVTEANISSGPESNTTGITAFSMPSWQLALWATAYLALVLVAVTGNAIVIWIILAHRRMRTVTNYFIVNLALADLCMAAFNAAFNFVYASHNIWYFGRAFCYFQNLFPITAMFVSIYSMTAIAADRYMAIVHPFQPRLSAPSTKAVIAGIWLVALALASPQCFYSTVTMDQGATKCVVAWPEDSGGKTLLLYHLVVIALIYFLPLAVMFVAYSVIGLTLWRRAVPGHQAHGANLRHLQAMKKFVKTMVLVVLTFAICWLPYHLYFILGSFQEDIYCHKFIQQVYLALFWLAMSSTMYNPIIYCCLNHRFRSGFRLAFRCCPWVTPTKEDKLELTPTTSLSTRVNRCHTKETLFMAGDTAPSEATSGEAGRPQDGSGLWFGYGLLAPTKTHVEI
PROPERTY: pIC50
As a rule, pIC50 stands for the negative log10 of the concentration, concentration in M.

Problem: Quote pIC50 reported for C/C=C/C#CC#C/C=C/CCC(O)CCOC(C)=O (stereo not shown) please.
Result: 4.51

----------
target: human-derived motilin receptor (Homo sapiens)
Sequence (O43193 whole entry): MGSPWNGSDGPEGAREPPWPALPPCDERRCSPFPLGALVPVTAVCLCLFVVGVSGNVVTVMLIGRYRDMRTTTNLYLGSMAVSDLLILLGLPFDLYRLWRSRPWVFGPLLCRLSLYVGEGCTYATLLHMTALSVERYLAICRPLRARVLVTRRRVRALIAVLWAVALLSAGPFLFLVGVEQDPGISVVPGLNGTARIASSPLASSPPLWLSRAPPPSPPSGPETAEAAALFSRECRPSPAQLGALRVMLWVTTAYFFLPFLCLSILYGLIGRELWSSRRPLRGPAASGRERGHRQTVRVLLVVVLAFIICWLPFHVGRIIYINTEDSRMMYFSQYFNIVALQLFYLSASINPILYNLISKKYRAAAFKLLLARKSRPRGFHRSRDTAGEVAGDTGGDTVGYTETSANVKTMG
PROPERTY: pIC50
Scale note: pIC50 = -log10(concentration in M).

Problem: Report the value of pIC50 obtained on human-derived motilin receptor (Homo sapiens) for C/C=C/C#CC#C/C=C/CCC(O)CCOC(C)=O (stereo not shown) .
Result: 4.54

----------
target: human-derived melanocortin MC1 receptor (Homo sapiens)
Sequence (Q01726 whole entry): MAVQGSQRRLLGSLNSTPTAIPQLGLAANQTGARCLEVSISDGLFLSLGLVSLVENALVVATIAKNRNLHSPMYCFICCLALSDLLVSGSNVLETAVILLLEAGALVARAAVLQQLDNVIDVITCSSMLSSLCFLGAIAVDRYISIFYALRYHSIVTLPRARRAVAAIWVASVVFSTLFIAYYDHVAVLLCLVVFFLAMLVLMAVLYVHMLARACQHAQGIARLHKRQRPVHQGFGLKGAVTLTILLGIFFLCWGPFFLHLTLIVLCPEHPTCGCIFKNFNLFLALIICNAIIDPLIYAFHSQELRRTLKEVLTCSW
PROPERTY: pIC50
For clarity, pIC50 is expressed as the negative log10 of concentration in mol/L.

Problem: Quote human-derived melanocortin MC1 receptor (Homo sapiens) pIC50 for entry C/C=C/C#CC#C/C=C/CCC(O)CCOC(C)=O (stereo not shown) .
Result: 3.88
